# protocol_description: Selectivity index, ratio of IC50 for CHO cells to IC50 for chloroquine sensitive Plasmodium falciparum NF54
# Format: toxicity, cell-based
# test_settings: hamster, read-out: Ratio IC50
Given measured selectivity ratio, output criterion met if it is greater than or equal to 3 and criterion not met if not.

Quick check: does `O=[N+]([O-])c1ccc(NCCCNC23CC4CC(CC(C4)C2)C3)c([N+](=O)[O-])c1` have selectivity ratio greater than or equal to 3? criterion met

Quick check: does O=C(OCCNC12OC3C4C5CC(C6C5C3C61)C42)c1cccc(/C=C/[N+](=O)[O-])c1 (stereo unspecified) have selectivity ratio greater than or equal to 3? criterion met

Quick check: does `CN(C)c1cccc2c(S(=O)(=O)NCCCNC34CC5CC(CC(C5)C3)C4)cccc12` have selectivity ratio greater than or equal to 3? criterion not met

Quick check: does OC12C3C4CC5C6C4C1C6C(C53)N2CCN1CCN(Cc2ccccc2)CC1 (stereo unspecified) have selectivity ratio greater than or equal to 3? criterion met

Quick check: does CN(C)c1cccc2cc(S(=O)(=O)NCCN3C4C5C6CC7C8C6C4C8C3(O)C75)ccc12 (stereo unspecified) have selectivity ratio greater than or equal to 3? criterion met

Quick check: does `N#Cc1c2ccccc2cn1CCCNC12CC3CC(CC(C3)C1)C2` have selectivity ratio greater than or equal to 3? criterion not met

Quick check: does OC12C3C4CC5C6C4C1C6C(C53)N2Cc1ccccc1 (stereo unspecified) have selectivity ratio greater than or equal to 3? criterion met

Quick check: does `c1ccc(CNC23CC4CC(CC(C4)C2)C3)cc1` have selectivity ratio greater than or equal to 3? criterion met

Quick check: does O=[N+]([O-])c1ccc(CNC23OC4C5C6CC(C7C6C4C72)C53)cc1 (stereo unspecified) have selectivity ratio greater than or equal to 3? criterion met

Quick check: does `O=[N+]([O-])c1ccc(CNC23CC4CC(CC(C4)C2)C3)cc1` have selectivity ratio greater than or equal to 3? criterion met

Quick check: does `COc1ccc(CNC23CC4CC(CC(C4)C2)C3)cc1` have selectivity ratio greater than or equal to 3? criterion met

---

Entries and their measured Activity follow.
# Tested on: Plasmodium falciparum Dd2
# protocol_description: Inhibition of voltage-gated calcium channel in Plasmodium flaciparum Dd2 cells assessed as reversal of choloroquine resistance at 1 uM relative to control
# Set-up: scale not given: the % may be the effect or the level left
Write the value in % as a bare number.

Documented Activity of O=[N+]([O-])c1ccc(CNC23OC4C5C6CC(C7C6C4C72)C53)cc1 (stereo not drawn) : 25

Documented Activity of CN(C)c1cccc2cc(S(=O)(=O)NCCN3C4C5C6CC7C8C6C4C8C3(O)C75)ccc12 (stereo not drawn) : 81

Documented Activity of COc1ccc(CCN(C)CCCC(C#N)(c2ccc(OC)c(OC)c2)C(C)C)cc1OC (stereo not drawn) : 73

Documented Activity of O=C(OCCNC12OC3C4C5CC(C6C5C3C61)C42)c1cccc(/C=C/[N+](=O)[O-])c1 (stereo not drawn) : 45

Documented Activity of OC12C3C4CC5C6C4C1C6C(C53)N2CCN1CCN(Cc2ccccc2)CC1 (stereo not drawn) : 19

Documented Activity of `CN(C)c1cccc2c(S(=O)(=O)NCCCNC34CC5CC(CC(C5)C3)C4)cccc12` : 65

Documented Activity of `N#Cc1c2ccccc2cn1CCCNC12CC3CC(CC(C3)C1)C2` : 42

Documented Activity of OC12C3C4CC5C6C4C1C6C(C53)N2Cc1ccccc1 (stereo not drawn) : 64
